assay: in vitro; details: human, hela cells, % viability
Measured viability at 28.5 h, 10 µM values are reported for all entries that follow.

- compound: "COc1ccc(C)cc1S(=O)(=O)Nc1cc(N2CCN(CC3CC3)CC2)c2occc2c1 [CBK073624C]"
  viability at 28.5 h, 10 µM, %: 94.2
- compound: "CCOc1cc(CNCCO)c(Cl)cc1OC [CBK269309C]"
  viability at 28.5 h, 10 µM, %: 102
- compound: "CCOC(=O)c1cnc(SC)nc1NCCc1c[nH]c2cc(OC)ccc12 [CBK092317]"
  viability at 28.5 h, 10 µM, %: 87.6
- compound: "Cc1ccc(-c2csc(CC#N)n2)cc1 [CBK047576]"
  viability at 28.5 h, 10 µM, %: 79.3
- compound: "COc1ccccc1OCC(=O)Nc1cnc(-c2cccc(C)c2)c(-c2cccnc2)n1 [CBK037112]"
  viability at 28.5 h, 10 µM, %: 84.1
- compound: "COc1cc(CNc2ccc(N3CCCCC3)cc2)ccc1OCc1ccccc1F [CBK074472]"
  viability at 28.5 h, 10 µM, %: 95.5
- compound: "O=C(c1c(F)cccc1F)N1C2CCC1c1snnc1C2 (stereo not shown) [CBK284990]"
  viability at 28.5 h, 10 µM, %: 91.5
- compound: "O=C(c1ccc(F)cc1)N1C[C@@H]2C[C@H](C1)c1ccc(-c3cncnc3)c(=O)n1C2 [CBK289185]"
  viability at 28.5 h, 10 µM, %: 92.9
- compound: "O=C(c1ccc(F)cc1)C1CCN(C/C=C/c2ccccc2)CC1 [CBK149124]"
  viability at 28.5 h, 10 µM, %: 90.4
- compound: "CC1Cc2cc(C(=O)N3CCCCC3CN(C)C)ccc2O1 (stereo not shown) [CBK282193]"
  viability at 28.5 h, 10 µM, %: 110

====

Measured viability at 28.5 h, 10 µM values are reported for all entries that follow.
test: in vitro; conditions: human, hela cells, % viability
readout: viability at 28.5 h, 10 µM (%)

- compound: "CCNC(=O)N(C)c1c(CC)nc2c(OCc3ccc(S(C)(=O)=O)cc3)cccn12"
  value: 93.4
- compound: "Cn1cc(-c2ncc(OCc3ccc4c(c3)OCO4)nc2N)cn1"
  value: 105
- compound: "Cc1cc2c(cc3c(=O)n(CC(=O)N4CCCCC4)nc(C)n32)o1"
  value: 83.4
- compound: "O=C(Nc1ccccc1)[C@H]1O[C@H](CCN2CCN(c3ccccn3)CC2)CC[C@@H]1O"
  value: 87.9
- compound: "Cc1cc(C)n(-c2ccc(N3CCC4(CC3)OCCO4)nn2)n1"
  value: 97.8
- compound: "CC(=O)Nc1cccc(-c2cn3ccnc3c(N3CCN(C)CC3)n2)c1"
  value: 95.2
- compound: "COc1ccc2[nH]cc(CC(=O)NCc3ccc(-c4csnn4)cc3)c2c1"
  value: 82.7
- compound: "Cn1c(=O)c2cnc(-c3ccccc3Cl)nc2n(C)c1=O"
  value: 85.7
- compound: "CCC(=O)N1CCc2cc(C(O)CN3CCCC3)ccc21 (stereo not drawn)"
  value: 97.7

====

assay: in vitro; design: Viability of infected HeLa host cells, resazurin conversion, bulk resorufin fluorescence relative to DMSO; settings: human, hela cells; bulk resorufin, mean of 2
Measured viability at 28.5 h, 1 µM values are reported for all entries that follow.
readout: viability at 28.5 h, 1 µM (%)

- compound: "CN(C(=O)Cc1ccsc1)c1nc2c(s1)CCc1c-2cnn1C"
  units of measure: "%"
  value: 103
- compound: "c1ccc(CNc2nnc(-c3ccccc3)s2)cc1"
  units of measure: "%"
  value: 95
- compound: "CCc1ccc(S(=O)(=O)Nc2cc(SCC(=O)O)c(O)c3ccccc23)cc1"
  units of measure: "%"
  value: 95.6
- compound: "O=C(Nc1ccc2[nH]ccc2c1)c1ccccc1Nc1cccc(C(F)(F)F)c1"
  units of measure: "%"
  value: 118
- compound: "O=C(O)/C(=N\\c1cccc2ccccc12)c1ccccc1"
  units of measure: "%"
  value: 87.4
- compound: "COc1ccc2cc3c(nc2c1)OC(=O)N(CC1CC1)C3"
  units of measure: "%"
  value: 112
- compound: "Cc1nc(C(=N)N)nc2ccccc12 [CBK010368C]"
  units of measure: "%"
  value: 98.3
- compound: "O=C(Nc1cc(Cl)nc(Cl)c1)N(Cc1ccc2ccccc2c1)CC1CCNCC1"
  units of measure: "%"
  value: 95.5
- compound: "Cc1ccc(Nc2ncc(C(=O)NCCCN3CCN(c4cccc(Cl)c4)CC3)c3ccccc23)cc1Cl"
  units of measure: "%"
  value: 106
- compound: "COc1ccc([C@H]2CN(Cc3ccccc3)[C@@H]3CCN(C(=O)Cc4ccccc4)C[C@H]23)cc1"
  units of measure: "%"
  value: 93.8
- compound: "CCC(c1ccc(F)cc1)N(C)C(=O)Cn1cc(C(=O)NC2CCCCC2)ccc1=O (stereo not shown)"
  units of measure: "%"
  value: 89.5
- compound: "CC(=O)c1cc(-c2cccnc2)cs1"
  units of measure: "%"
  value: 113
- compound: "c1ccc(Oc2cccc(OCCCN3CCCCC3)c2)cc1"
  units of measure: "%"
  value: 103
- compound: "C/C(Nc1ccc(S(=O)(=O)Nc2nccc(C)n2)cc1)=C1\\C(=O)N(c2nc3ccccc3s2)N=C1C(F)(F)F"
  units of measure: "%"
  value: 93.4
- compound: "OC(CN1CCN(Cc2ccccc2)CC1)Cn1c2ccc(Br)cc2c2cc(Br)ccc21 (stereo not shown)"
  units of measure: "%"
  value: 94.6
- compound: "Cc1csc(SC(C)C(=O)N2CCc3ccccc32)n1 (stereo not shown)"
  units of measure: "%"
  value: 94.1
- compound: "CCCCCC(=O)Nc1ccc(S(=O)(=O)Nc2nnc(CC)s2)cc1"
  units of measure: "%"
  value: 94.8
- compound: "Cc1cc(C)nc(NC(=N)NCCc2c[nH]c3ccccc23)n1"
  units of measure: "%"
  value: 109
- compound: "COc1ccc(C2CC(=O)C=C(Nc3cc(Cl)ccc3O)C2)cc1 (stereo not shown)"
  units of measure: "%"
  value: 90.9
- compound: "c1ccc2c3c([nH]c2c1)C1(CCN(CCC2CCCCC2)C1)OCC3 (stereo not shown)"
  units of measure: "%"
  value: 92.9
- compound: "O=C(Nc1cccc(OC(=O)c2cc(S(=O)(=O)N3CCCCC3)ccc2Cl)c1)c1ccco1"
  units of measure: "%"
  value: 101
- compound: "COc1ccc2[nH]cc(CCNC(=O)c3ccc(Cl)c(Cl)c3)c2c1"
  units of measure: "%"
  value: 93.3
- compound: "Cc1cccc(OCC(C)NC(=O)NCCc2cnn(C)c2)c1 (stereo not shown)"
  units of measure: "%"
  value: 100
- compound: "CC(C)(CN)CN(Cc1ccc(-c2ccccc2)cc1)C(=O)Nc1ccccc1C(C)(C)C [CBK002476C]"
  units of measure: "%"
  value: 118
- compound: "CCc1nnc(NS(=O)(=O)c2ccc(N/C=C\\C(=O)c3ccc4ccccc4c3)cc2)s1"
  units of measure: "%"
  value: 93.6
- compound: "COc1cc(C=C2SC(NCC(=O)O)=NC2=O)ccc1OCc1ccc(Cl)cc1Cl"
  units of measure: "%"
  value: 88.5
- compound: "CCCN(CCC)CCc1cccc2c1CCN2C(=O)c1cc2ccccc2s1 [CBK017871C]"
  units of measure: "%"
  value: 96.8
- compound: "COCCNc1nc2c(c(N3CCCCCC3)n1)CCNCC2"
  units of measure: "%"
  value: 98
- compound: "O=C(NCC1CC1)c1ccc(N2CCN(C(=O)c3ccccc3C(F)(F)F)CC2)nn1"
  units of measure: "%"
  value: 104
- compound: "Cc1ccc(S(=O)(=O)Nc2cc(SCC(=O)O)c(O)c3ccccc23)cc1"
  units of measure: "%"
  value: 103
- compound: "Cc1ccc(C(=O)NC2CCCC2)cc1[N+](=O)[O-]"
  units of measure: "%"
  value: 112
- compound: "CC(=O)NC[C@H]1CN(c2ccc(-c3nnc(CCC#N)s3)c(F)c2)C(=O)O1"
  units of measure: "%"
  value: 93.8
- compound: "Cc1cccc(N(C)S(=O)(=O)c2ccc(N3CCCNCC3)c3ccccc23)c1C [CBK004430C]"
  units of measure: "%"
  value: 89.7
- compound: "NCCCNc1ncc(C(=O)NCc2ccccc2)c(NCC2CCCCC2)n1"
  units of measure: "%"
  value: 113
- compound: "CN1CCN(c2cc3c(cc2F)c(=O)c(C(=O)O)cn3-c2ccc(F)cc2)CC1"
  units of measure: "%"
  value: 103
- compound: "CN(C)CCCNC(=O)c1ccc([N+](=O)[O-])o1"
  units of measure: "%"
  value: 97.2
- compound: "COc1ccc([C@@]23CC[C@@H](Nc4nc(-c5ccc(Br)cc5)cs4)C[C@@H]2N(C)CC3)cc1OC"
  units of measure: "%"
  value: 91.3
